measured_on: APOL1 (Homo sapiens, UniProt O14791)
Sequence (O14791 1-398 S342G/I384M): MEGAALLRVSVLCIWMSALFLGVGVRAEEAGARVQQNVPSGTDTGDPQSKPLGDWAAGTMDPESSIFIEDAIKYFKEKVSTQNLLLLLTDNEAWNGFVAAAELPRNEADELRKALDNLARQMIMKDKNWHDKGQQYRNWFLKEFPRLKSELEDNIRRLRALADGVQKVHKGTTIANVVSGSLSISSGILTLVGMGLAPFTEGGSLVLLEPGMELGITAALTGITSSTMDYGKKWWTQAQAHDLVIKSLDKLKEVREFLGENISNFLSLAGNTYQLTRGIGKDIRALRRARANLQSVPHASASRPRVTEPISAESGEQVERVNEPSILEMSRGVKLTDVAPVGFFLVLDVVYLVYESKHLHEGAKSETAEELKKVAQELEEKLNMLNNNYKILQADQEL
assay_procedure: MultiTox-Fluor Multiplex Cytotoxicity Assay in tet-inducible APOL1 T-REx-HEK293 cells
Type: cell-based
assay_conditions: tet-inducible transgenic APOL1 T-REx-HEK293 cells, 50 ng/mL tet, 24 hours; ratio of dead to live cells; APOL1 variant (G0/G1/G2) not stated; read-out: IP50 (nM) (i.e., IC50 for cell proliferation)
Catalogue of IC50 values

C[C@H]1C[C@@](O)(c2ccc(Cl)c(Cl)c2)CCN1Cc1ccc2c(c1)n(C)c(=O)n2C: ≤ 100 nM
Cc1nc(CN2CC[C@](O)(c3cccc(Cl)c3)C[C@@H]2C)c[nH]1: 500 to 5000 nM

Task: In one line, give reported IC50 of the entry C[C@H]1C[C@@](O)(c2ccccc2)CCN1Cc1ccc2c(c1)n(C)c(=O)n2C .
Result: 100 to 500 nM

Task: Using the record for C[C@H]1C[C@@](O)(c2ccc3c(c2)CCO3)CCN1Cc1ccc2c(c1)n(C)c(=O)n2C , state its measured IC50.
Result: 500 to 5000 nM

Task: Tell us which IC50 value is on record for C[C@@H]1C[C@](O)(c2cccc(F)c2)CCN1Cc1ccc2c(c1)n(C)c(=O)n2C
Result: 100 to 500 nM

Task: Provide one value: measured IC50 of C[C@H]1C[C@](O)(c2ccc(Cl)cc2)CCN1Cc1ccc2c(c1)n(C)c(=O)n2C
Result: 500 to 5000 nM

Task: Annotate the compound C[C@H]1C[C@@](O)(c2cccc(Cl)c2)CCN1Cc1cnn(C2CCS(=O)(=O)C2)c1 (some centres unmarked) with its measured IC50.
Result: 100 to 500 nM

Task: Return IC50 (reported value) for this compound: CC(C)n1cc(CN2CC[C@](O)(c3cccc(Cl)c3)C[C@@H]2C)cn1
Result: 500 to 5000 nM

====

measured_on: APOL1 (Homo sapiens)
assay_procedure: MultiTox-Fluor Multiplex Cytotoxicity Assay in tet-inducible APOL1 T-REx-HEK293 cells
Format: cell-based
assay_conditions: tet-inducible transgenic APOL1 T-REx-HEK293 cells, 50 ng/mL tet, 24 hours; ratio of dead to live cells; APOL1 variant (G0/G1/G2) not stated; read-out: IP50 (nM) (i.e., IC50 for cell proliferation)
recorded_endpoint: IC50

Illustrative cases are given below, each with its answer.
C[C@H]1C[C@@](O)(c2cccc(Cl)c2)CCN1Cc1cnn(CCS(C)(=O)=O)c1: ≤ 100 nM
C[C@H]1C[C@@](O)(c2cccc(Cl)c2)CCN1Cc1cnn(-c2ccccn2)c1: ≤ 100 nM
Cc1ccc(CN2CC[C@](O)(c3cccc(Cl)c3)C[C@@H]2C)nn1: 500 to 5000 nM
C[C@H]1CC(O)(c2cccc(C(F)(F)F)c2)CCN1Cc1ccc2c(c1)n(C)c(=O)n2C (stereo partly drawn): 100 to 500 nM

Task: Hello, please tell me recorded IC50 for this one: C[C@H]1C[C@@](O)(c2cccc(C3CC3)c2)CCN1Cc1ccc2c(c1)n(C)c(=O)n2C
Result: ≤ 100 nM

Task: Note IC50 for the molecule shown: Cc1ncc(CN2CC[C@](O)(c3cccc(Cl)c3)C[C@@H]2C)cn1
Result: 500 to 5000 nM

Task: Provide only the value of recorded IC50 for Cc1cc(C)cc([C@@]2(O)CCN(Cc3ccc4c(c3)n(C)c(=O)n4C)[C@@H](C)C2)c1
Result: ≤ 100 nM

Task: Report IC50, nothing else, for this molecule: C[C@H]1C[C@@](O)(c2cccc(Cl)c2)CCN1Cc1cnn(CC(=O)N(C)C)c1
Result: 100 to 500 nM

Task: Input C[C@H]1C[C@@](O)(c2ccc(Cl)cc2)CCN1Cc1ccc2c(c1)n(C)c(=O)n2C , output reported IC50.
Result: ≤ 100 nM

Task: Entry C[C@@H]1C[C@](O)(c2ccccc2)CCN1Cc1ccc2c(c1)n(C)c(=O)n2C needs its IC50 filled in; supply it.
Result: 500 to 5000 nM

Task: Give the value of IC50 reported for the following: Cc1cccc([C@@]2(O)CCN(Cc3ccc4c(c3)n(C)c(=O)n4C)[C@@H](C)C2)c1
Result: 100 to 500 nM
